Reference for the values: paper PMC13004581

Target: cgreGFP (Clytia gregaria, UniProt D7PM05)
Sequence (D7PM05 1-235): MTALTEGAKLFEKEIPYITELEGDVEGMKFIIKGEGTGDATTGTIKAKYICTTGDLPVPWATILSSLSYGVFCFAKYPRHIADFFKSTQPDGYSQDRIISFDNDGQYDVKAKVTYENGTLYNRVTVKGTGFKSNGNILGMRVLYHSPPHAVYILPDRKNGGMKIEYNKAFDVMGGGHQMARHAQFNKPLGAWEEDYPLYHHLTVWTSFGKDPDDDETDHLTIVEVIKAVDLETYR
The following compounds are shown together with reported pKd values.
// pKd is dimensionless: -log10 of concentration (M)

Please review the following examples before continuing.
COMPOUND	pKd
O=[N+]([O-])O [nitrate]	1.97
Cl [chloride]	1.60
I [iodide]	2.28

Now consider a different compound.
# lookup: Br [bromide] on cgreGFP (Clytia gregaria, UniProt D7PM05), pKd = 1.82
